Target: human full-length recombinant PKC βII (Homo sapiens, UniProt P05771)
Construct: Active human full-length recombinant PKC βII; purchased Invitrogen GmbH, Darmstadt, Germany
Sequence (P05771 1-673 isoform P05771-2): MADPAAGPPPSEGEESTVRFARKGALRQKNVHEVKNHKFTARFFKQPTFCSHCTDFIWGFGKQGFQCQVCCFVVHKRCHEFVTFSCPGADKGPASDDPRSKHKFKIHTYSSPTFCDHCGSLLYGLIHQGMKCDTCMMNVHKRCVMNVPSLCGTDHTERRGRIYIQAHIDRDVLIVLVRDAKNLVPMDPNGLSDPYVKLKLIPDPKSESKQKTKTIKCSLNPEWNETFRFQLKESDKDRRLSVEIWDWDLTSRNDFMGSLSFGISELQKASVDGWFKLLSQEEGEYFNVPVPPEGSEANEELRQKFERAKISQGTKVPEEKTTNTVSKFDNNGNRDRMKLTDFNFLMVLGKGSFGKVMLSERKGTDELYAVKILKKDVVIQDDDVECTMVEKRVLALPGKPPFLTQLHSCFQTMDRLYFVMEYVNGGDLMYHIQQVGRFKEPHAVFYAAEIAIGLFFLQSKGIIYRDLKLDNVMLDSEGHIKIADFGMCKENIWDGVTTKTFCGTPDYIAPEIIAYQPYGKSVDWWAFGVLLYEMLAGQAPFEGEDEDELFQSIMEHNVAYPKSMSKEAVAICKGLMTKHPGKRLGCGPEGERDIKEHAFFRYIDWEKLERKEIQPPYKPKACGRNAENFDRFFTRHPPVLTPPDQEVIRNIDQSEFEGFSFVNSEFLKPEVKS
Experiment: Determination of PKC βII inhibition (Caliper mobility-shift kinase assay, Fluorescein-RFARKGSLRQKNV peptide substrate)
Assay type: biochemical
Conditions: example compounds at a final concentration of 1.14 μM (±0.15 μM)
Observation Type: inhibition at 1.14 µM (%)

Look over these answered cases.
[
  {
    "Compound": "Cc1cc(O)ccc1-c1cc(C(=O)N2CCN[C@@H](C)C2)c2c(C)n[nH]c2n1",
    "Unit Name": "%",
    "inhibition at 1.14 µM": 92
  },
  {
    "Compound": "CCC[C@@H]1CN(C(=O)c2cc(-c3ccc(O)cc3F)nc3[nH]nc(C)c23)CCN1",
    "Unit Name": "%",
    "inhibition at 1.14 µM": 80
  }
]

A: Cc1n[nH]c2nc(-c3ccc(O)cc3)cc(C(=O)N3CCNCC3c3ccccc3)c12 (stereo not shown)
B: Cc1n[nH]c2nc(-c3ccc(O)c(F)c3)cc(C(=O)NC3CCN(C4CCCCC4)CC3)c12
Rank A against B by their inhibition at 1.14 µM values and give the higher one. Lab log: write the label of the selected item as the result.
A

###

Target: human full-length recombinant PKC βII (Homo sapiens)
Construct: Active human full-length recombinant PKC βII; purchased Invitrogen GmbH, Darmstadt, Germany
Test: Determination of PKC βII inhibition (Caliper mobility-shift kinase assay, Fluorescein-RFARKGSLRQKNV peptide substrate)
Assay type: biochemical
Conditions: example compounds at a final concentration of 1.14 μM (±0.15 μM)
Observation Type: inhibition at 1.14 µM (%)

[
  {
    "Molecule": "Cc1n[nH]c2nc(-c3ccc(O)cc3)cc(C(=O)N3CCNCC3c3ccc(F)cc3F)c12 (stereo not shown)",
    "Measured Target": "human full-length recombinant PKC βII (Homo sapiens)",
    "Unit Name": "%",
    "inhibition at 1.14 µM": 98
  },
  {
    "Molecule": "Cc1n[nH]c2nc(-c3ccc(O)c(F)c3)cc(C(=O)N3CCNCC3Cc3ccccc3)c12 (stereo not shown)",
    "Measured Target": "human full-length recombinant PKC βII (Homo sapiens)",
    "Unit Name": "%",
    "inhibition at 1.14 µM": 74
  },
  {
    "Molecule": "Cc1n[nH]c2nc(-c3ccc(O)cc3)cc(C(=O)N3CCNC[C@H]3Cc3ccccc3)c12",
    "Measured Target": "human full-length recombinant PKC βII (Homo sapiens)",
    "Unit Name": "%",
    "inhibition at 1.14 µM": 92
  },
  {
    "Molecule": "Cc1n[nH]c2nc(-c3ccc(O)c(F)c3)cc(C(=O)N3CC4CNCC4C3)c12 (stereo not shown)",
    "Measured Target": "human full-length recombinant PKC βII (Homo sapiens)",
    "Unit Name": "%",
    "inhibition at 1.14 µM": 84
  }
]

###

Molecular target: human full-length recombinant PKC βII (Homo sapiens, UniProt P05771)
Construct: Active human full-length recombinant PKC βII; purchased Invitrogen GmbH, Darmstadt, Germany
Assay: Determination of PKC βII inhibition (Caliper mobility-shift kinase assay, Fluorescein-RFARKGSLRQKNV peptide substrate)
Assay type: biochemical
Details: example compounds at a final concentration of 1.14 μM (±0.15 μM)
Observation Type: inhibition at 1.14 µM (%)

Look over these answered cases.
[
  {
    "Molecule": "COC(=O)[C@H]1CN(C(=O)c2cc(-c3ccc(O)cc3)nc3[nH]nc(C)c23)CCN1",
    "Measured Target": "human full-length recombinant PKC βII (Homo sapiens, UniProt P05771)",
    "Recorded Value": 64
  },
  {
    "Molecule": "Cc1n[nH]c2nc(-c3ccc(O)cc3)cc(C(=O)N[C@@H]3CCCC[C@@H]3N)c12 (relative stereo)",
    "Measured Target": "human full-length recombinant PKC βII (Homo sapiens, UniProt P05771)",
    "Recorded Value": 48
  },
  {
    "Molecule": "Cc1n[nH]c2nc(-c3ccc(O)cc3)cc(C(=O)N3CCCN(C)CC3)c12",
    "Measured Target": "human full-length recombinant PKC βII (Homo sapiens, UniProt P05771)",
    "Recorded Value": 87
  },
  {
    "Molecule": "Cc1n[nH]c2nc(-c3ccc(O)c(F)c3)cc(C(=O)N[C@@H]3CCCNC3)c12",
    "Measured Target": "human full-length recombinant PKC βII (Homo sapiens, UniProt P05771)",
    "Recorded Value": 83
  },
  {
    "Molecule": "Cc1n[nH]c2nc(-c3ccc(O)cc3)cc(C(=O)N3CCNC(C)C3)c12 (centres unmarked)",
    "Measured Target": "human full-length recombinant PKC βII (Homo sapiens, UniProt P05771)",
    "Recorded Value": 100
  }
]

A: Cc1n[nH]c2nc(-c3ccc(O)cc3)cc(C(=O)N3CCCC(C)(N)C3)c12 (centres unmarked)
B: CC(=O)N1CCC(NC(=O)c2cc(-c3ccc(O)cc3)nc3[nH]nc(C)c23)CC1
Rank A against B by their inhibition at 1.14 µM values and give the higher one. Lab log: write the label of the selected item as the result.
A

###

Target: human full-length recombinant PKC βII (Homo sapiens)
Construct: Active human full-length recombinant PKC βII; purchased Invitrogen GmbH, Darmstadt, Germany
Test: Determination of PKC βII inhibition (Caliper mobility-shift kinase assay, Fluorescein-RFARKGSLRQKNV peptide substrate)
Assay type: biochemical
Conditions: example compounds at a final concentration of 1.14 μM (±0.15 μM)
Observation Type: inhibition at 1.14 µM (%)

[
  {
    "Compound": "Cc1n[nH]c2nc(-c3ccc(O)c(F)c3)cc(C(=O)NC3CC4(CC(N)C4)C3)c12 (centres unmarked)",
    "inhibition at 1.14 µM / %": 59
  },
  {
    "Compound": "CN[C@H]1CN(C(=O)c2cc(-c3ccc(O)cc3)nc3[nH]nc(C)c23)CC[C@H]1C (racemic)",
    "inhibition at 1.14 µM / %": 79
  },
  {
    "Compound": "Cc1n[nH]c2nc(-c3ccc(O)cc3)cc(C(=O)NC3CC4(CC(N)C4)C3)c12 (centres unmarked)",
    "inhibition at 1.14 µM / %": 78
  },
  {
    "Compound": "O=C(N[C@H]1CN2CCC1CC2)c1cc(-c2ccc(O)cc2)nc2[nH]nc(C(F)(F)F)c12",
    "inhibition at 1.14 µM / %": 29
  },
  {
    "Compound": "Cc1n[nH]c2nc(-c3ccc(O)cc3)cc(C(=O)NC3CC4CCCC(C3)N4C)c12 (centres unmarked)",
    "inhibition at 1.14 µM / %": 74
  },
  {
    "Compound": "Cc1n[nH]c2nc(-c3ccc(O)cc3)cc(C(=O)N3C[C@H](C)NC[C@@H]3C)c12",
    "inhibition at 1.14 µM / %": 101
  },
  {
    "Compound": "Cc1n[nH]c2nc(-c3ccc(O)cc3)cc(C(=O)N3CCC4(CCNC4)CC3)c12",
    "inhibition at 1.14 µM / %": 82
  },
  {
    "Compound": "Cc1n[nH]c2nc(-c3ccc(O)c(F)c3)cc(C(=O)N3CC4(CCNCC4)C3)c12",
    "inhibition at 1.14 µM / %": 73
  }
]

###

Target: human full-length recombinant PKC βII (Homo sapiens, UniProt P05771)
Construct: Active human full-length recombinant PKC βII; purchased Invitrogen GmbH, Darmstadt, Germany
Test: Determination of PKC βII inhibition (Caliper mobility-shift kinase assay, Fluorescein-RFARKGSLRQKNV peptide substrate)
Type: biochemical
Settings: example compounds at a final concentration of 1.14 μM (±0.15 μM)
Method: Determination of PKC βII Inhibition PKC βII Inhibition was Determined According to the Following Protocol: […] Test compounds were diluted to three times the test concentration in buffer 1 (30 mM Hepes-NaOH, pH 7.4, 0.01% Pluronic F-68 and 3% (v/v) DMSO). […] Phosphorylation of the substrate peptide was then detected on a Caliper 3000 instrument essentially as described by Pommereau et al (J. Biomol. Screening 2004, 9(5), 409-416). […]
Observation Type: inhibition at 1.14 µM (%)

[
  {
    "Compound": "Cc1n[nH]c2nc(-c3ccc(O)c(F)c3)cc(C(=O)N3CC(N)C3)c12 [Example 315]",
    "inhibition at 1.14 µM (%)": 62
  },
  {
    "Compound": "Cc1n[nH]c2nc(-c3ccc(O)c(F)c3)cc(C(=O)NC3CCC(N)CC3)c12 (centres unmarked) [Example 338]",
    "inhibition at 1.14 µM (%)": 68
  },
  {
    "Compound": "COC[C@H]1CNCCN1C(=O)c1cc(-c2ccc(O)cc2)nc2[nH]nc(C)c12 [Example 21]",
    "inhibition at 1.14 µM (%)": 121
  },
  {
    "Compound": "Cc1n[nH]c2nc(-c3ccc(O)cc3)cc(C(=O)N3CCNCC3c3ccc4c(c3)OCO4)c12 (centres unmarked) [Example 32]",
    "inhibition at 1.14 µM (%)": 98
  },
  {
    "Compound": "CC[C@H]1CNCCN1C(=O)c1cc(-c2ccc(O)cc2F)nc2[nH]nc(C)c12 [Example 431]",
    "inhibition at 1.14 µM (%)": 97
  }
]

A: Cc1n[nH]c2nc(-c3ccc(O)c(F)c3)cc(C(=O)N3CCN[C@@H](C(C)C)C3)c12 [Example 326]
B: Cc1n[nH]c2nc(-c3ccc(O)c(F)c3)cc(C(=O)NC3CC(C)(C)N(C)C(C)(C)C3)c12 [Example 364]
Rank A against B by their inhibition at 1.14 µM values and give the higher one. Lab log: write the label of the selected item as the result.
A
